All figures here come from patent US20110059504A1.

targetOfAssay: T1, human myostatin (human, UniProt O14793 267-375, biotinylated in selections and radioactive assays (site not stated))
T1 construct: Phage ELISA used both unbiotinylated and biotinylated myostatin; also called biotinylated human myostatin; myostatin-biotin
T1 sequence (looked up): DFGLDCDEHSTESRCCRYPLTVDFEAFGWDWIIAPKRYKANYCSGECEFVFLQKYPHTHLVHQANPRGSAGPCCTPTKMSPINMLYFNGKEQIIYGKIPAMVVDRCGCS
testProtocol: radioactive equilibrium binding assay
Hi there, I'd appreciate the recorded Kd for every entry that follows.
I only need the number, in nM, no unit after it.

Kindly note the recorded Kd for 39908-A7 (designed binder, group M3-A50; ΔS82, M83R; also called M24 (clone ID)) MTIPEIIIKVRGTQVVGSDMTVIVEFSNPFKETLRNVWVHLDGPGVTRPMKKMFCEIRPNSIVQWEEVVRPWVSGHRKLIARMTLRPWHVYGELDVQIQRRDYKDDDDK , which is 20.1

Kindly note the recorded Kd for 39908-G12 (designed binder, group M2-A50; also called M10 (clone ID)) MTIPEIIIKVRGTQVVGSDMTVIVEFTNPFKETLRSVWVHLDGPGVTRPMKKMFSEIRPNSTVQWEEVVRPWVSGHRKLIASMPSLLHLHVYGELDVQIQRRDYKDDDDK , which is 25.6

Kindly note the recorded Kd for 39885-D8 (K9R) (designed binder, group M1-A; K9R; also called M5-2 (clone ID)) MTIPEIIIRVRGTQVVGSDMTVIVEFTNPLKETLRNVWVHLDGPGVTRPMKKMFPAIPMDHKVQWEEVVRPWVSGHRKLIASMPQLFHIHVYGELDVQIQRRDYKDDDDK , which is 24.7

Kindly note the recorded Kd for 39885-G8 (designed binder, group M1-A; also called M10-3 (clone ID)) MTIPEIIIKVRGTQVVGSDMTVIVEFTNPLKETLRNVWVHLDGPGVTRPMKKMFPTIPMNHKVQWEEVVRPWVSGHRKLIASMPQLFHIHVYGELDVQIQRRDYKDDDDK , which is 30.8
